Provenance of the data: PubChem BioAssay (NCI)

Reported TGI values follow for various compounds
Test system: SF-295 CNS
Test: NCI tumour cell line growth inhibition, 48 h
readout name: TGI

• CC1CCC2(NC1)OC1CC3C4CC=C5CC(OC6OC(CO)C(OC7OC(C)C(O)C(O)C7O)C(O)C6OC6OC(C)C(O)C(O)C6O)CCC5(C)C4CCC3(C)C1C2C (centres undefined) = 3.94 µM
• O=C1C=CC(=O)N1n1c(-c2ccccc2)n[nH]c1=O = > 100 µM
• Fc1cc2[nH]ncc2c2c3c(c(-c4cn[nH]c4C(F)(F)F)nc12)C1CCC3C1 (centres undefined) = 4.94 µM
• CCOC(=O)c1s/c(=N\Nc2nc3ccccc3cc2C2OCCO2)n(Cc2ccccc2)c1C = > 100 µM
• COc1ccc2cc(-c3c(-c4ccncc4)nc(-c4ccc(S(C)(=O)=O)cc4C)n3C)ccc2c1 = > 25 µM
• CC(C)C(=O)C(C)(C)CCc1ccccn1 = > 100 µM
• CC(C)c1cccc(C(C)C)c1NC(=O)/C(CC(=O)CC(c1ccccc1)c1c(O)c2ccccc2oc1=O)=N/O (centres undefined) = > 100 µM
• O=c1[nH]c2nc3ccccc3nc2[nH]c1=O = > 100 µM
• c1cncc(CC2(c3cc4ccccc4[nH]3)OCCO2)c1 = > 100 µM

====

Test system: RPMI-8226 leukemia
Test: NCI tumour cell line growth inhibition, 48 h
readout name: TGI

- O=c1c(Cc2ccc(Cl)cc2)nnc2sc(-c3ccc(-c4ccc(F)c(Cl)c4)o3)nn12: > 100 µM
- COc1cc(-c2cn(-c3ccc(Cl)c(Cl)c3)c(=O)n2C(C)=O)cc(OC)c1OC: 32.3 µM
- Cc1ccc(-c2cc(-c3ccccc3)c(C#N)c(=O)n2C2OC(CO)C(O)C(O)C2O)cc1 (configuration not stated): > 100 µM
- NC(=O)c1cc2c3ccccc3ccn2c1-c1ccccc1: 2.31 µM
- Nc1nc(Cl)cc(NCC2(O)CC2)n1: > 100 µM
- Cc1c(CN2CCN(C)CC2)c(CN2CCN(C)CC2)c(C)n1-c1ccc(Cl)cc1: > 100 µM
- CCOC(=O)c1cc(/C=C/C(C)=C/C(=O)OC)oc1C: > 100 µM
- Cc1c(C(=O)NCCN2CCOCC2)cn2ncnc(Oc3ccc(NC(=O)Nc4ccc(Cl)c(C(F)(F)F)c4)cc3)c12: 3.01 µM
- O=C(/C=C/C(=O)N1CCCC1)N1CCCC1: > 100 µM
- N#CCCN(CCC#N)c1ccc(C(Sc2ccccc2)C(NC(=O)c2cc([N+](=O)[O-])ccc2Cl)C(=O)Sc2ccccc2)cc1 (configuration not stated): 5.66 µM
- CCN(CC)C(=S)SC: > 100 µM
- CN1CC[C@]2(C)c3ccc(O)cc3CC3CCCC1C32C (some centres not stated): > 100 µM
- COc1cc(S(=O)(=O)Nc2ccc(C(=O)/C=C/c3ccc(O)cc3)cc2)ccc1F: > 100 µM
- Cc1ccc2nc(-c3ccc(N(C)C)c(Br)c3)cn2c1: > 100 µM
- CO[C@H]1SC[C@H](OC(C)=O)[C@H](OC(C)=O)[C@H]1OC(C)=O: > 100 µM
- CCOC(=O)C1(C#N)C(c2ccccc2)CC(O)(c2ccc(Cl)cc2)C(C(=O)c2ccc(Cl)cc2)C1c1ccccc1 (configuration not stated): > 100 µM
- S=C(N/N=C\C(=N/NC(=S)N1CCCCC1)c1ccccc1)N1CCCCC1: > 100 µM

====

Tested on: OVCAR-3 ovarian
Experiment: NCI tumour cell line growth inhibition, 48 h
readout name: TGI (µM)

- COc1ccc(C2=NN(C=O)C(c3cccc(Nc4ccnc5cc(Cl)ccc45)c3)C2)cc1 (stereo not given): 12.5
- COC(=O)C1CCc2sc3ncnc(Nc4cn[nH]c4C(=O)Nc4ccc(CN5CCN(C)CC5)cc4)c3c21 (stereo not given): 2.04
- CCOc1cc(/C=N\Nc2nnc(C)n2N)c(C)cc1N(CCCl)CCCl: 38.6
- CC[PH+](CC)CC.O=COC1OC([S-])C(OC=O)C(OC=O)C1OC=O.[Au+] (stereo not given): 2.99

====

Test system: HCC-2998 colon
Experiment: NCI tumour cell line growth inhibition, 48 h
readout name: TGI (µM)

- COc1cc(/C=C2\C(=O)Nc3ccc(N(C)C)cc32)cc(OC)c1OC: 46.4
- CC[C@H](Nc1nc(C)nc(N)c1C#N)c1nc2cccc(NCc3ccc(C(=O)NO)cc3)c2c(=O)n1-c1ccccc1: 3.28

====

In this section we review reported TGI values for a set of molecules.
System: SK-MEL-2 melanoma
Assay: NCI tumour cell line growth inhibition, 48 h
readout name: TGI (µM)

* COc1cc(-c2cn(-c3ccc(Cl)c(Cl)c3)c(=O)n2C(C)=O)cc(OC)c1OC | 25.3
* CC(C)C(CC(=O)OCC(CO)OC(=O)CC(C(C)C)C(C)C)C(C)C (centres undefined) | 35.2
* Cc1sc2nc3c4ccccc4c(NCCCN(C)C)nn3c(=O)c2c1C | 39.7
* CC1CCC2(NC1)OC1CC3C4CC=C5CC(OC6OC(CO)C(OC7OC(C)C(O)C(O)C7O)C(O)C6OC6OC(C)C(O)C(O)C6O)CCC5(C)C4CCC3(C)C1C2C (centres undefined) | 9.07

====

Test system: MALME-3M melanoma
Assay: NCI tumour cell line growth inhibition, 48 h
readout name: TGI

* CC1=NN(c2nc(N)nc(-c3sccc3N)n2)C(C)(C)C1 | > 100 µM
* Cc1ccc(-c2cc(-c3ccco3)c(C#N)c(=O)n2C2OC(OC(=O)c3ccccc3)C(OC(=O)c3ccccc3)C2OC(=O)c2ccccc2)cc1 (stereo not given) | > 100 µM
* Cc1[nH]c(=O)nc(NCCNCCO)c1C(=O)Nc1cccc2cc3ccccc3cc12 | > 100 µM
* C[C@]12CCCC(=O)C1(O)C[C@H](C(=O)O)CC2 (stereo not given in full) | > 100 µM
* CSc1nc(NC(C)C)c2c(n1)Sc1nc3ccccc3n1N=C2 | 38 µM

====

Test system: OVCAR-5 ovarian
Assay: NCI tumour cell line growth inhibition, 48 h; in the data active = GI50 below about 0.43 µM; inactive = the rest
Outcome codes: y (active), n (inactive)

- CCOC(=O)/C=C/C1=C(c2cccs2)c2ccccc2CC1: n
- CCC[n+]1cc2cc(OC)c(OC)cc2c2c1-c1cc3c(cc1C2)OCO3: n
- CCOc1cc(/C=N\Nc2nnc(C)n2N)c(C)cc1N(CCCl)CCCl: n
- CNCCn1c(=O)c2cc(OC)c(OC)cc2c2ccc3cc4c(cc3c21)OCO4: y
- COc1ccc2[nH]c(O)c(C(=Nc3ccc(N(C)C(=O)CN4CCN(C)CC4)cc3)c3ccccc3)c2c1: n
- O=C(O)C1CCCCC1C(=O)O.[NH-]C1CCC1.[NH2-].[Pt+2] (configuration not stated): n
- Cc1cc(Cl)ccc1Nc1nc(C(F)(F)F)ccc1C(=O)N/N=C/c1ccc([N+](=O)[O-])cc1: n
- COc1cc(/C=C2\C(=O)Nc3ccc(N(C)C)cc32)cc(OC)c1OC: n
- O=C1c2cc(Cl)ccc2-c2c1c1ccc([N+](=O)[O-])cc1c(=O)n2CCCBr: n
- COc1cc(-c2n/c(=C\c3c(O)[nH]c4ccc(Cl)cc34)cc3c2=Nc2ccccc2-3)ccc1F: n
- COc1cc(S(=O)(=O)Nc2ccc(C(=O)/C=C/c3ccc(O)cc3)cc2)ccc1F: n
- C=C1C(=O)O[C@H]2[C@H]1CC/C(COC(=O)c1cc3cc(Cl)ccc3[nH]1)=C\CC[C@@]1(C)O[C@@H]21: n

====

Test system: TK-10 renal
Assay: NCI tumour cell line growth inhibition, 48 h
Catalogue of molecules with associated TGI
readout name: TGI

- CC(=O)OCC1OC(n2c(-c3ccccc3)c(N=Nc3ccccc3)c(C)c(C#N)c2=S)C(OC(C)=O)C(OC(C)=O)C1OC(C)=O (centres undefined): > 100 µM
- OCCNc1ncnc2c1ncn2Cc1cccc(COc2cccc(OCc3cccc(Cn4cnc5c(NCCO)ncnc54)c3)c2)c1: 29.9 µM
- CCCCC1=C(C(=O)N2CCOCC2)C2(OCCO2)C1=O: > 100 µM
- CC1CCC2(NC1)OC1CC3C4CC=C5CC(OC6OC(CO)C(OC7OC(C)C(O)C(O)C7O)C(O)C6OC6OC(C)C(O)C(O)C6O)CCC5(C)C4CCC3(C)C1C2C (centres undefined): 15.1 µM
- CCN(CC)C(=S)Oc1cc2oc(=O)cc(C)c2cc1Cl: > 100 µM
- COC(=O)[C@]12CCC(C)[C@H](C)[C@H]1C1=CCC3[C@@]4(C)CC[C@H](OC(C)=O)C(C)(C)C4CC[C@@]3(C)C1(C)C(O)C2 (some centres undefined): > 100 µM
- NCCCCNCCCNC(=O)c1nc(-c2nc(CCN)sc2Cl)sc1Cl: > 100 µM
- CC(CCC(=O)O)C(=O)O (centres undefined): > 100 µM
- O=[N+]([O-])c1cnn(C2=CNc3ccccc3N=C2)c1: > 100 µM
